SYSTEM NAME: T1, recombinant human EGFR extracellular domain with 6xHis (human, UniProt P00533 25-645)
T1 construct: In-house produced; also called 6xHis EGFR ECD; soluble human EGFR ECD; not shown: 6xHis tag
PROTOCOL DESCRIPTION: SPR competition, competitor 1024
MEASURE: % inhibition (%)
Use % as the unit, but write only the number.

antibody 1024 (antibody, human IgG1, kappa, V domains shown, Chimeric IgG1 kappa) VH: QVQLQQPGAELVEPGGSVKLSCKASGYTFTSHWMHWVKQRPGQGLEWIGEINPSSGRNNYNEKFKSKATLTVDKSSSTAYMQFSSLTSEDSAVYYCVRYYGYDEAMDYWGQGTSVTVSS VL: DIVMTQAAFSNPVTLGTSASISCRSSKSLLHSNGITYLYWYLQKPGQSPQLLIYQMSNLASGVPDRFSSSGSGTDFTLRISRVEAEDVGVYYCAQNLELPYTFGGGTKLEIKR; 96
antibody 1284 (antibody, human IgG1, kappa, V domains shown, Chimeric IgG1 kappa) VH: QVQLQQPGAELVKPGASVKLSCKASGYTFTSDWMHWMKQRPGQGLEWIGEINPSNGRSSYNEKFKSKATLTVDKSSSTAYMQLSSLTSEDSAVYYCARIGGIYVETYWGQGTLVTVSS VL: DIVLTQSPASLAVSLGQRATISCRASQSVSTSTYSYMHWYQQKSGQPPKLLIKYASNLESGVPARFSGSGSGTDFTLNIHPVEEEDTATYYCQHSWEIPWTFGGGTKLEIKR; 0

Kindly consider the entry below.
Q) Requested field: % inhibition. Item: antibody 1260 (antibody, human IgG1, kappa, V domains shown, Chimeric IgG1 kappa) VH: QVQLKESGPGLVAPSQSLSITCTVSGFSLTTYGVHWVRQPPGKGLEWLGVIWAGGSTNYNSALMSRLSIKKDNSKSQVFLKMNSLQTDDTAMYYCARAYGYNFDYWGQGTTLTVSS VL: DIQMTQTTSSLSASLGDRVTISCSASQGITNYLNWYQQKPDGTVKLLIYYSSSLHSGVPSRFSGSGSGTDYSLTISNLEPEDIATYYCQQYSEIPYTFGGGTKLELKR
A) 33

Values compiled from patent US20110135636A1.
